// viability, T/C lookup, one value per entry
Tested on: 991263-137-R1-J2-PDC complex spheroid viability
Assay: Anticancer human tumor 991263-137-R1-J2-PDC patient-derived colon adenocarcinoma cell line growth inhibition [POLQ]
Conditions: second compound 0.1 µM; first compound 10 µM; stronger effect = lower value
Could you give me the number in %? Just the number is fine.

Ask: Missing value: viability, T/C, 991263-137-R1-J2-PDC complex spheroid viability, entry CC1COCCN1c1cc(-c2ccnn2C)c2ccnc(-c3ccn[nH]3)c2n1 (stereo not drawn) + COC1C(OC(N)=O)C(O)C(Oc2ccc3c(O)c(NC(=O)c4ccc(O)c(CC=C(C)C)c4)c(=O)oc3c2C)OC1(C)C . Fill in?
Result: 31.7

Ask: Missing value: viability, T/C, 991263-137-R1-J2-PDC complex spheroid viability, entry C=CC(=O)N1CCN(c2nc(=O)n(-c3c(C)ccnc3C(C)C)c3nc(-c4c(O)cccc4F)c(F)cc23)C(C)C1 (stereo not drawn) + Cc1cccc(N(C)C(=O)C2C(O)CCN2c2nc(C)cc(C(F)(F)F)c2C#N)c1 . Fill in?
Result: 107

# ---- query molecule ----
Ask: Missing value: viability, T/C, 991263-137-R1-J2-PDC complex spheroid viability, entry CC1COCCN1c1cc(C2(S(C)(=N)=O)CC2)nc(-c2ccnc3[nH]ccc23)n1 (stereo not drawn) + Cc1cccc(N(C)C(=O)C2C(O)CCN2c2nc(C)cc(C(F)(F)F)c2C#N)c1 . Fill in?
Result: 106

----------
Test system: 991263-137-R1-J2-PDC complex spheroid viability
Experiment: Anticancer human tumor 991263-137-R1-J2-PDC cell line growth inhibition [POLQ];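 note: spheroids exposed to compounds for 7 days before readout; 100% = DMSO vehicle control viability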
Conditions: second compound 0.316 µM; first compound 0.1 µM; stronger effect = lower value
QUANTITY_KIND: viability, T/C (%)
Could you give me the number in %? Just the number is fine.

Below: 5 molecules and their reported viability, T/C.
Ask: Which viability, T/C is listed for O=C(Nc1ccc(O)c(NS(=O)(=O)c2ccc(F)cc2)c1)c1ccc(-c2ccccc2)cc1 + Nc1ccc(C#CCN(C(=O)Cc2ncc(C(F)(F)F)cc2C(F)(F)F)c2ccc(F)cc2)nn1 ?
Result: 105

Ask: Which viability, T/C is listed for CC1COCCN1c1cc(-c2ccnn2C)c2ccnc(-c3ccn[nH]3)c2n1 (stereo unspecified) + COC1C(OC(N)=O)C(O)C(Oc2ccc3c(O)c(NC(=O)c4ccc(O)c(CC=C(C)C)c4)c(=O)oc3c2C)OC1(C)C ?
Result: 108

Ask: Which viability, T/C is listed for C=CCn1c(=O)c2cnc(Nc3ccc(N4CCN(C)CC4)cc3)nc2n1-c1cccc(C(C)(C)O)n1 + COC1C(OC(N)=O)C(O)C(Oc2ccc3c(O)c(NC(=O)c4ccc(O)c(CC=C(C)C)c4)c(=O)oc3c2C)OC1(C)C ?
Result: 97.8

Ask: Which viability, T/C is listed for CCc1cc2c(N3CCc4c(cc(Cn5ccnc5)cc4-c4cn(C)nc4C(F)(F)F)C3=O)ccnc2c(OC)n1 + Cc1cccc(N(C)C(=O)C2C(O)CCN2c2nc(C)cc(C(F)(F)F)c2C#N)c1 ?
Result: 96.8

Ask: Which viability, T/C is listed for C=CC(=O)N1CCN(c2nc(=O)n(-c3c(C)ccnc3C(C)C)c3nc(-c4c(O)cccc4F)c(F)cc23)C(C)C1 (stereo unspecified) + COC1C(OC(N)=O)C(O)C(Oc2ccc3c(O)c(NC(=O)c4ccc(O)c(CC=C(C)C)c4)c(=O)oc3c2C)OC1(C)C ?
Result: 124

Further cases:
Ask: Which viability, T/C is listed for CC1COCCN1c1cc(-c2ccnn2C)c2ccnc(-c3ccn[nH]3)c2n1 (stereo unspecified) + Nc1ccc(C#CCN(C(=O)Cc2ncc(C(F)(F)F)cc2C(F)(F)F)c2ccc(F)cc2)nn1 ?
Result: 107

Ask: Which viability, T/C is listed for CC(C)n1c(=O)n(C)c2cnc3cc(F)c(-c4ccc(OCCCN5CCCCC5)nc4)cc3c21 + Nc1ccc(C#CCN(C(=O)Cc2ncc(C(F)(F)F)cc2C(F)(F)F)c2ccc(F)cc2)nn1 ?
Result: 99.4

Ask: Which viability, T/C is listed for COc1ccc([C@@H](O)c2cc(-c3ncnc4cc(N5CCOCC5)ccc34)c(F)cc2Cl)nn1 + Nc1ccc(C#CCN(C(=O)Cc2ncc(C(F)(F)F)cc2C(F)(F)F)c2ccc(F)cc2)nn1 ?
Result: 105

Ask: Which viability, T/C is listed for CNCc1ccc(-c2[nH]c3cc(F)cc4c3c2CCNC4=O)cc1 + Nc1ccc(C#CCN(C(=O)Cc2ncc(C(F)(F)F)cc2C(F)(F)F)c2ccc(F)cc2)nn1 ?
Result: 97.2

Ask: Which viability, T/C is listed for CCc1c2c(nc3ccc(O)cc13)-c1cc3c(c(=O)n1C2)COC(=O)[C@]3(O)CC + COC1C(OC(N)=O)C(O)C(Oc2ccc3c(O)c(NC(=O)c4ccc(O)c(CC=C(C)C)c4)c(=O)oc3c2C)OC1(C)C ?
Result: 48.9

Ask: Which viability, T/C is listed for COc1cccc(OCCCN)c1-c1cc(Nc2cnc(C#N)cn2)n[nH]1 + Nc1ccc(C#CCN(C(=O)Cc2ncc(C(F)(F)F)cc2C(F)(F)F)c2ccc(F)cc2)nn1 ?
Result: 85.1

Ask: Which viability, T/C is listed for Cn1ncnc1[C@H]1c2n[nH]c(=O)c3cc(F)cc(c23)N[C@@H]1c1ccc(F)cc1 + Nc1ccc(C#CCN(C(=O)Cc2ncc(C(F)(F)F)cc2C(F)(F)F)c2ccc(F)cc2)nn1 ?
Result: 82.9

Ask: Which viability, T/C is listed for CNCc1ccc(-c2[nH]c3cc(F)cc4c3c2CCNC4=O)cc1 + COC1C(OC(N)=O)C(O)C(Oc2ccc3c(O)c(NC(=O)c4ccc(O)c(CC=C(C)C)c4)c(=O)oc3c2C)OC1(C)C ?
Result: 91.6

Ask: Which viability, T/C is listed for CC[C@@]1(O)C(=O)OCc2c1cc1n(c2=O)Cc2cc3c(CN(C)C)c(O)ccc3nc2-1 + COC1C(OC(N)=O)C(O)C(Oc2ccc3c(O)c(NC(=O)c4ccc(O)c(CC=C(C)C)c4)c(=O)oc3c2C)OC1(C)C ?
Result: 84.5

Ask: Which viability, T/C is listed for CCc1cc2c(N3CCc4c(cc(Cn5ccnc5)cc4-c4cn(C)nc4C(F)(F)F)C3=O)cc(C)nc2c(OC)n1 + Cc1cccc(N(C)C(=O)C2C(O)CCN2c2nc(C)cc(C(F)(F)F)c2C#N)c1 ?
Result: 93.8

Ask: Which viability, T/C is listed for COc1cc2cc(C(=O)CCC(=O)O)sc2cc1OC + Cc1cccc(N(C)C(=O)C2C(O)CCN2c2nc(C)cc(C(F)(F)F)c2C#N)c1 ?
Result: 92.8

Ask: Which viability, T/C is listed for CCc1c2c(nc3ccc(O)cc13)-c1cc3c(c(=O)n1C2)COC(=O)[C@]3(O)CC + Nc1ccc(C#CCN(C(=O)Cc2ncc(C(F)(F)F)cc2C(F)(F)F)c2ccc(F)cc2)nn1 ?
Result: 52.9

Ask: Which viability, T/C is listed for CC1COCCN1c1cc(C2(O)CC3CCC(C2)O3)c2cnn(-c3ccn[nH]3)c2n1 (stereo unspecified) + Cc1cccc(N(C)C(=O)C2C(O)CCN2c2nc(C)cc(C(F)(F)F)c2C#N)c1 ?
Result: 110

Ask: Which viability, T/C is listed for CCc1cc2c(N3CCc4c(cc(Cn5ccnc5)cc4-c4cn(C)nc4C(F)(F)F)C3=O)cc(C)nc2c(OC)n1 + Nc1ccc(C#CCN(C(=O)Cc2ncc(C(F)(F)F)cc2C(F)(F)F)c2ccc(F)cc2)nn1 ?
Result: 112

Ask: Which viability, T/C is listed for CC1COCCN1c1cc(C2(S(C)(=N)=O)CC2)nc(-c2ccnc3[nH]ccc23)n1 (stereo unspecified) + Nc1ccc(C#CCN(C(=O)Cc2ncc(C(F)(F)F)cc2C(F)(F)F)c2ccc(F)cc2)nn1 ?
Result: 103

Ask: Which viability, T/C is listed for CCc1c2c(nc3ccc(O)cc13)-c1cc3c(c(=O)n1C2)COC(=O)[C@]3(O)CC + Cc1cccc(N(C)C(=O)C2C(O)CCN2c2nc(C)cc(C(F)(F)F)c2C#N)c1 ?
Result: 60.1
